# Test details: reducers of endogenous Her2 protein level, primary screen, SKBR3 breast tumor cells, AlphaScreen, ATP viability (AID 461);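 further: percent of carrier control wells set as 100% viability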
# Condition label: 18-24 h, measured here: SKBR3 viability, ATP luminescence, at 10 µM
Measurement name: viability (%)

Molecule	Measurement name	Unit abbrev	Measurement
CCCn1c(SCC(=O)NCCc2ccccc2)nnc1-c1ccccn1	viability	%	97.5
Cc1csc(NC(=O)c2cc3c(s2)-c2ccccc2OC3)n1	viability	%	91
CCC1(C)Cc2c(C#N)c(N)n(N)c(=S)c2CO1 (stereo unspecified)	viability	%	102
Cc1onc(-c2ccccc2Cl)c1C(=O)Nc1cccnc1	viability	%	102
Cc1cc(=O)n(C)c(=O)n1CCCNc1ccccc1	viability	%	82
Cc1ccc(-c2nc3ccccc3[nH]2)s1	viability	%	74

---

// reported RAM network inhibition for each item listed
# Test details: RAM signaling pathway blockade in yeast – S. cerevisiae, Pdr1DBD-CYC8 efflux-inhibited sensitized strain, primary screen (AID 1298);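 further: 0% = DMSO untreated cells without growth and 100% = 10 µM 1-NA-PP1 full growth; higher means more yeast growth rescued from 5-FOA killing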
# Condition label: S. cerevisiae cbk1-as DSE1-URA3 strain, 5-FOA growth OD615, 2 d; at 50 µM; stronger effect = higher value

Molecule	RAM network inhibition / %
Cc1ccccc1-n1c(Cn2c(=O)sc3ccccc32)nnc1SCC(=O)Nc1nccs1	5.86
Cc1cccnc1NC(=O)c1c(O)c2ccccc2n(C)c1=O	-1.38
CCc1n[nH]c2c1/C(=N\O)CC(C)(C)C2	1.03
O=C(Cc1c(C(=O)O)[nH]c2ccccc12)Nc1ccc2c(c1)OCO2	2.01
CCSc1sccc1C1C(C#N)=C(N)N(c2cccnc2)C2=C1C(=O)CC(C)(C)C2 (stereo unspecified)	12.4
O=C(Nc1cccc(F)c1)Nc1ccccn1	-0.16

---

# Test details: reversal of MRP1-mediated doxorubicin resistance, pilot screen, H69AR cells, doxorubicin co-treatment (AID 601)
# Condition label: H69AR cells + 2 uM doxorubicin, CellTiter-Glo, 72 h; measured here: viability with 2 uM doxorubicin; at 10 µM; stronger effect = lower value
Decide using viability alone. Strictly below 90%: yes. Equal to or above 90%: no.

Molecule	Assigned category
COc1cccc(-n2c(SC3CCOC3=O)nc3ccccc3c2=O)c1 (stereo unspecified)	yes
Cc1cccc(Nc2ccccc2C(=O)O)c1C	no
COc1ccc2[nH]c(=O)c(CN(C(=O)c3ccncc3)C(C)C)cc2c1	no
Nc1nc(N2C(=O)C3CC=CCC3C2=O)nn1-c1ccccc1 (stereo unspecified)	no
Nc1c(C(=O)NCCc2ccccc2)nnn1Cc1ccccc1	yes
COC(=O)c1cc(=O)nc2sc(-c3cccs3)nn12	yes
Cn1c(=N)c(S(=O)(=O)c2ccc(Cl)cc2)cc2c(=O)n3ccccc3nc21	yes
Nc1cc(C(=O)O)ccc1Nc1ccc(F)c(F)c1	no
Cc1ccc(Cl)cc1NC(=O)CSc1nnc(C)n1-c1ccccc1	yes
Cn1c(=O)c2ncn(CC(=O)NCCOc3ccc(C(C)(C)C)cc3)c2n(C)c1=O	no

---

# Test details: HUVEC growth inhibition – cell-based, human, primary screen (AID 575);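 further: 100% = median of untreated cell wells with 0.1% DMSO on each plate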
# Condition label: HUVEC proliferation, CellTiter-Glo luminescence, 72 h; at 10 µM; stronger effect = lower value

Molecule	viability, %
CCOC(=O)CC12CN3CN(C1)CC(CC(=O)OCC)(C3)C2=O	89.1
O=C(CSc1ncnc2c1cnn2Cc1ccccc1)Nc1ccc2c(c1)OCCO2	74.9
COCCN(C(=O)c1csnn1)C(C(=O)NC(C)(C)C)c1cccc(OC)c1 (stereo unspecified)	120
CCN(CC)Cc1csc(C(N)=O)c1	104
CC(=O)Nc1ccc(Cl)cc1C(=O)O	85.8
O=C(COc1cccc(Oc2ccccc2)c1)Nc1ncccn1	110
CCCN(CCC)S(=O)(=O)c1ccc(NS(C)(=O)=O)cc1	98.2
CCCC(=O)N(c1ccc2oc(=O)sc2c1)S(=O)(=O)c1ccccc1	78.3
O=C1CCc2cc(S(=O)(=O)N3CCC(C(=O)Nc4nccs4)CC3)ccc2N1	110
C/C(N)=C(/C#N)C(=O)COC(=O)COc1ccc(Cl)cc1	98
O=C(NCc1cccnc1)c1cn(CCc2ccccc2)nn1	130

---

// reported viability for each item listed
# Test details: growth suppression of PTEN-deleted HCT116, pilot screen, cell-based, HCT116 clonal line, CellTiter-Glo (AID 824);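 further: 0% = 20 µM Hyamine control and 100% = vehicle cell control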
# Condition label: 60 h, at 10 µM, stronger effect = lower value
Records with an inconclusive call do not appear.

Compound	viability [%]
CC(=O)c1ccc(N2CCN(C(=O)c3cc4c(=O)n(C)c5ccccc5c4n3C)CC2)cc1	88.5
CN1CCN(CCCNC(=O)c2cc3c(=O)n(C)c4ccccc4c3s2)CC1	45.6
CCN(CCNC(=O)C1CCCN(S(=O)(=O)c2cnc[nH]2)C1)c1ccccc1 (stereo unspecified)	101
CCCNc1nc2c(c(=O)n(C)c(=O)n2C)n1Cc1ccc(F)cc1	79.1
O=C(Nc1ccccc1)c1ccc(S(=O)(=O)N2CCCCC2)cc1	82.5
CC(NC(=O)c1ccccc1O)c1ccccc1 (stereo unspecified)	94.1

---

# Test details: inhibitors of the yeast RAM network, pilot screen, dse1pr::URA3 reporter, 5-FOA selection (AID 869);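 further: 0% = DMSO wells with no growth and 100% = 10 µM 1-NA-PP1 with full growth; RAM network block rescues cells from 5-FOA so hits raise OD615 growth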
# Condition label: S. cerevisiae dse1pr::URA3 5-FOA growth, OD615, 2 d; at 10 µM; stronger effect = higher value; strain carries analog-sensitive mutant Cbk1 kinase

Compound	inhibition [%]
COc1cc(S(=O)(=O)N2CCN(Cc3ccc4c(c3)OCO4)CC2)c(C)cc1C	2.5
O=C(CCn1nnc2ccccc21)N1CCC(O)(c2cccc(F)c2)CC1	2.4
CCN(CC)c1ccc(CNC23CN4CN(CN(C4)C2)C3)cc1	1.72
CN(C)S(=O)(=O)c1ccc(C(=O)Nc2ccccn2)cc1	1.31
CC(C)(C)SCCNS(=O)(=O)c1ccccc1	2.52
CCCC(=O)c1cc(F)c(N2CCN(CCC#N)CC2)cc1C	2.97
CCC(=O)N1CCc2cc(Br)cc(S(=O)(=O)N3CCN(c4ccccn4)CC3)c21	0.44
Cc1cccc(OCCCCCNCCO)c1	1.7
CCC(=O)Nc1c2c(nn1-c1cccc(Cl)c1)CSC2	2.1
CCOC(=O)C(C)Sc1nnc(Cc2cc(=O)[nH]c(=O)[nH]2)n1-c1ccc(OCC)cc1 (stereo unspecified)	0.75
O=C(O)c1cccc(NS(=O)(=O)c2cccc3cccnc23)c1	0.655

---

# Test details: reversal of MRP1-mediated doxorubicin resistance, pilot screen, H69AR cells, doxorubicin co-treatment (AID 601)
# Condition label: H69AR cells, CellTiter-Glo, 72 h; compound alone cytotoxicity; at 10 µM
Measurement name: viability

Molecule	Measurement
Cc1nnc2sc(-c3cccc(NC(=O)c4cccnc4)c3)nn12	87.8%
O=C(CN(Cc1ccco1)C(=O)CNS(=O)(=O)c1ccc(F)cc1)NCCc1ccccc1	91.9%
c1ccc(-c2nn3c(Cn4nnc5ccccc54)nnc3s2)nc1	101%
COC(=O)COc1nc(C)c(Br)c(OC)n1	116%
CCOC(=O)C1CCN(c2c(N(C)Cc3ccco3)c(=O)c2=O)CC1	104%
CCOC(=O)c1[nH]c(C)c(C(=O)NCc2ccccn2)c1C	102%
O=C(CN1CCN(c2ncccn2)CC1)Nc1ccccc1-n1cccc1	92.9%
CC1(C)CC(=O)C2=C(C1)OC(=O)C2(NC(=O)c1cccs1)C(F)(F)F (stereo unspecified)	98%
COc1cccc(-c2cc(C(=O)N3CCc4ccccc4C3)no2)c1	96.8%
CCOC(=O)c1ccccc1NC(=O)COC(=O)C1=COCCO1	88.7%
CN(C)c1ccc(CNn2cnnc2)cc1	100%

---

// reported RAM network inhibition for each item listed
# Test details: RAM signaling pathway blockade in yeast – S. cerevisiae, Pdr1DBD-CYC8 efflux-inhibited sensitized strain, primary screen (AID 1298);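 further: 0% = DMSO untreated cells without growth and 100% = 10 µM 1-NA-PP1 full growth; higher means more yeast growth rescued from 5-FOA killing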
# Condition label: S. cerevisiae cbk1-as DSE1-URA3 strain, 5-FOA growth OD615, 2 d; at 50 µM; stronger effect = higher value
Measurement name: RAM network inhibition (%)

Compound	Unit abbrev	Measurement
Cc1ccc(CC2C(=O)N(c3ncccn3)C(=O)C2C)cc1 (stereo unspecified)	%	1.72
O=C(O)c1cccc(N2C(=O)C3CC=C(Cl)CC3C2=O)c1 (stereo unspecified)	%	3.38
CCCCN1C(=O)C(O)(CC(=O)c2ccco2)c2cc(Br)ccc21 (stereo unspecified)	%	-1.34
CCN1CCN(CCNC(=O)c2ccc(CS(=O)(=O)c3c(Cl)cccc3Cl)o2)CC1	%	1.59
COc1ccc(C/C(N)=N/n2cnnc2)cc1	%	3.02
CCNc1nc(NCC)nc(Oc2ccc(OCC)nn2)n1	%	4.95
Cc1nn(C)c(C)c1S(=O)(=O)N(CC(=O)NCCN1CCOCC1)c1ccc(C(C)C)cc1	%	2.73
O=c1c2[nH]c3ccc(F)cc3c2ncn1CCN1CCN(Cc2ccccc2)CC1	%	1.11
CCCCc1ccc(NC(=O)OC)cc1	%	-2
COc1cc2c(cc1OC)C(C(=O)Nc1cccc(C)n1)C(c1cccnc1)N(C)C2=O (stereo unspecified)	%	6.27
Cc1cc(C)c(S(=O)(=O)NCC2CCC(C(=O)NCCCN3CCOCC3)CC2)c(C)c1 (stereo unspecified)	%	-0.63

The reported measurements were obtained from PubChem BioAssay.
